Molecular target: Cannabinoid receptor (Mus musculus) (UniProt P47746+P47936)
Sequence (P47746 whole entry, looked up): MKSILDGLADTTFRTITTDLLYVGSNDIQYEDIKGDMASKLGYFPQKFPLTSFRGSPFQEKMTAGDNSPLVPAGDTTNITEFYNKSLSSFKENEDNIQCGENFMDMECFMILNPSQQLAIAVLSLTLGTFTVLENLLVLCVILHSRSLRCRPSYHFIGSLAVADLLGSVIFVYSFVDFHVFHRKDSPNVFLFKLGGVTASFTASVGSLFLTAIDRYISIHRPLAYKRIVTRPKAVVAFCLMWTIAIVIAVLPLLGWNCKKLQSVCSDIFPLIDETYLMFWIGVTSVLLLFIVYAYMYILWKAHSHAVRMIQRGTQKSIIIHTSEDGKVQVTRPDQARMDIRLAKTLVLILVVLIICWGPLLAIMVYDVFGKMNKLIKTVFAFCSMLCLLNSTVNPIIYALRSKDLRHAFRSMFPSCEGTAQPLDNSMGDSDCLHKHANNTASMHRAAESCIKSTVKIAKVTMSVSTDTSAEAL
Sequence (P47936 whole entry, looked up): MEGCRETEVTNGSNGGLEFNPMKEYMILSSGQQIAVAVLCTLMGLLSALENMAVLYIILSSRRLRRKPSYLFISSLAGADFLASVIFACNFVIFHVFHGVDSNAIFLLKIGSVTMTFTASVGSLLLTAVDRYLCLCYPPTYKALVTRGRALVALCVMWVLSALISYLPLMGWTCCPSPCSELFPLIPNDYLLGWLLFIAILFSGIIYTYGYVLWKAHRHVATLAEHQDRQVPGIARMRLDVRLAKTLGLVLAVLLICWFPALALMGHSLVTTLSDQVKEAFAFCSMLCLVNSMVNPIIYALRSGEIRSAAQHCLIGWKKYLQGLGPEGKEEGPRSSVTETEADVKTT
Assay: Selectivity for DBA/J2 mouse CB2 receptor over CB1 receptor
Assay type: protein assay
Outcome label depends on Ratio Ki relative to 10: at/above gives true, below gives false.

Solved entries (count: 4):
- compound: "Cc1ccc2c(=O)c(C(=O)NC3CCCCC3)cn(Cc3ccccc3)c2n1"
  cat: "true"
- compound: "O=C(NC1CCCCC1)c1cn(CCN2CCOCC2)c2ncccc2c1=O"
  cat: "true"
- compound: "O=C(NC1CCCCC1)c1cn(Cc2ccc(F)cc2)c2nc(Cl)ccc2c1=O"
  cat: "true"
- compound: "Cc1ccc2c(=O)c(C(=O)NC3CCCCCC3)cn(Cc3ccccc3F)c2n1"
  cat: "true"

Challenge: I'd appreciate it if you could say whether O=C(NC1CCCCC1)c1cn(Cc2ccccc2)c2nc(Cl)ccc2c1=O has Ratio Ki at least equal to 10.
Response given: true

Challenge: I'd appreciate it if you could say whether CCCC(C)(C)c1ccc2c(c1)OC(C)(C)[C@@H]1CC=C(C)C[C@@H]21 has Ratio Ki at least equal to 10.
Response given: false

Challenge: I'd appreciate it if you could say whether Cc1ccc2c(=O)c(C(=O)NC3CCCCCC3)cn(Cc3ccc(F)cc3)c2n1 has Ratio Ki at least equal to 10.
Response given: false

Challenge: I'd appreciate it if you could say whether O=C(NC1CCCCC1)c1cn(Cc2ccccc2)c2ccccc2c1=O has Ratio Ki at least equal to 10.
Response given: true

Challenge: I'd appreciate it if you could say whether COc1ccc(Cn2cc(C(=O)NC3CCCCC3)c(=O)c3ccc(C)nc32)cc1 has Ratio Ki at least equal to 10.
Response given: true

Challenge: I'd appreciate it if you could say whether O=C(NC1CCCCC1)c1cn(Cc2ccc(F)cc2)c2ncccc2c1=O has Ratio Ki at least equal to 10.
Response given: true

Challenge: I'd appreciate it if you could say whether Cc1ccc2c(=O)c(C(=O)NC3CCC(C)CC3)cn(Cc3ccc(F)cc3)c2n1 (centres undefined) has Ratio Ki at least equal to 10.
Response given: false
